# Tested on: obese female Zucker rats
# measurement.description: Oral daily treatment of obese female Zucker rats for fourteen days: serum lipids, glycemic control indicators, body weight
# Assay type: in vivo, rat
# measurement.context: Rattus norvegicus, 336 h, serum, 100 mg/kg/day oral, read-out: Insulin (Percent of Pre-treatment)
Please assign FALSE whenever change in vivo at 100 mg/kg is at or above -40%, and TRUE whenever it is below.

compound: CCCCC(O)CCCCCC(C)(C)C(=O)O (stereo not drawn)
assigned.class: FALSE
--
compound: CC(C)(CO)CCCCCCC(O)CCCCCCC(C)(C)CO
assigned.class: FALSE
--
compound: CC(C)(CO)CCCCC(CO)CCCCC(C)(C)CO
assigned.class: FALSE
--
compound: CC(C)(CCCCC(CO)CCCCC(C)(C)C(=O)O)C(=O)O
assigned.class: FALSE
--
compound: CC(C)(CO)CCCCCC(O)CCCCCC(C)(C)CO
assigned.class: TRUE
--
compound: CC(C)(CCCCCC(O)CCCCCC(C)(C)C(=O)O)C(=O)O
assigned.class: TRUE
--
compound: CC(C)(CO)CCCCCCCC(O)CCCCCCCC(C)(C)CO
assigned.class: FALSE
--
compound: CC(C)(CO)CCCCC(O)CCCCC(C)(C)CO
assigned.class: FALSE
--
compound: CC(C)(CCCCC(O)CCCCC(C)(C)C(=O)O)C(=O)O
assigned.class: FALSE

----------
# Test system: obese female Zucker rats
# measurement.description: Oral daily treatment of obese female Zucker rats for fourteen days: serum lipids, glycemic control indicators, body weight
# Assay type: in vivo, rat
# measurement.context: Rattus norvegicus, 336 h, serum, 100 mg/kg/day oral, read-out: HDL-C (Percent of Pre-treatment)
The label is class 1 for change in vivo at 100 mg/kg below 50% and class 0 for change in vivo at 100 mg/kg equal to or exceeding 50%.

compound: CC(C)(CO)CCCCCCCC(O)CCCCCCCC(C)(C)CO
system.under.test: obese female Zucker rats
assigned.class: class 0

compound: CC(C)(CO)CCCCCCC(O)CCCCCCC(C)(C)CO
system.under.test: obese female Zucker rats
assigned.class: class 0

compound: CC(C)(CCCCCC(O)CCCCCC(C)(C)C(=O)O)C(=O)O
system.under.test: obese female Zucker rats
assigned.class: class 0

compound: CC(C)(CO)CCCCC(CO)CCCCC(C)(C)CO
system.under.test: obese female Zucker rats
assigned.class: class 1

compound: CCCCC(O)CCCCCC(C)(C)C(=O)O (stereo not drawn)
system.under.test: obese female Zucker rats
assigned.class: class 1

----------
# System: obese female Zucker rats
# measurement.description: Oral daily treatment of obese female Zucker rats for fourteen days: serum lipids, glycemic control indicators, body weight
# Assay type: in vivo, rat
# measurement.context: Rattus norvegicus, 336 h, serum, 100 mg/kg/day oral, read-out: HDL-C (Percent of Pre-treatment)
value.kind: change in vivo at 100 mg/kg (%)

compound: CC(C)(CCCCC(CO)CCCCC(C)(C)C(=O)O)C(=O)O [K]
quantity.unit: %
reported.result: 62
--
compound: CC(C)(CO)CCCCCC(O)CCCCCC(C)(C)CO [Compound B]
quantity.unit: %
reported.result: 237
--
compound: CC(C)(CO)CCCCC(O)CCCCC(C)(C)CO [F]
quantity.unit: %
reported.result: 222

----------
# System: obese female Zucker rats
# measurement.description: Oral daily treatment of obese female Zucker rats for fourteen days: serum lipids, glycemic control indicators, body weight
# Assay type: in vivo, rat
# measurement.context: Rattus norvegicus, 336 h, serum beta-hydroxy butyric acid, 100 mg/kg/day oral, read-out: BHA (Percent of Pre-treatment)
So basically: change in vivo at 100 mg/kg at 200% or higher? That is label 1. Lower than 200%? That is label 0.

compound: CC(C)(CO)CCCCCCC(O)CCCCCCC(C)(C)CO
assigned.class: label 0
--
compound: CC(C)(CO)CCCCC(CO)CCCCC(C)(C)CO
assigned.class: label 0
--
compound: CC(C)(CCCCC(CO)CCCCC(C)(C)C(=O)O)C(=O)O
assigned.class: label 1
--
compound: CCCCC(O)CCCCCC(C)(C)C(=O)O (centres unmarked)
assigned.class: label 0
--
compound: CC(C)(CO)CCCCCCCC(O)CCCCCCCC(C)(C)CO
assigned.class: label 0
--
compound: CC(C)(CCCCC(O)CCCCC(C)(C)C(=O)O)C(=O)O
assigned.class: label 1
--
compound: CC(C)(CCCCCC(O)CCCCCC(C)(C)C(=O)O)C(=O)O
assigned.class: label 0
